assay: SAD study NP10679-101, plasma pharmacokinetics; type: in vivo, human; conditions: human, plasma, iv, 15 mg, Cohort 2, 15 mg single IV
ATTRIBUTE_MEASURED: clearance
The reply must contain the numeric value and, after it, the unit.

Prompt line: // clearance lookup, key: O=C1CCc2cc(OC[C@H](O)CN3CCN(c4ccc(C(F)(F)F)cc4)CC3)ccc2N1 [NP10679]
Response line: 200 mL/min

---

assay: in vivo; settings: BALB/c, mouse, plasma, iv, 3 mg/kg
ATTRIBUTE_MEASURED: Tmax
The reply must contain the numeric value and, after it, the unit.

Prompt line: // Tmax lookup, key: O=C1CCc2cc(OC[C@H](O)CN3CCN(c4ccc(C(F)(F)F)cc4)CC3)ccc2N1 [NP10679]
Response line: 4.8 min

From: patent US20240360091A1
